systemTested: T1, IL-18 receptor (IL-18R) on HEK-Blue IL18R reporter cells (UniProt Q13478 19-541; O95256 20-599, limits assumed)
T1 sequence (looked up) 1: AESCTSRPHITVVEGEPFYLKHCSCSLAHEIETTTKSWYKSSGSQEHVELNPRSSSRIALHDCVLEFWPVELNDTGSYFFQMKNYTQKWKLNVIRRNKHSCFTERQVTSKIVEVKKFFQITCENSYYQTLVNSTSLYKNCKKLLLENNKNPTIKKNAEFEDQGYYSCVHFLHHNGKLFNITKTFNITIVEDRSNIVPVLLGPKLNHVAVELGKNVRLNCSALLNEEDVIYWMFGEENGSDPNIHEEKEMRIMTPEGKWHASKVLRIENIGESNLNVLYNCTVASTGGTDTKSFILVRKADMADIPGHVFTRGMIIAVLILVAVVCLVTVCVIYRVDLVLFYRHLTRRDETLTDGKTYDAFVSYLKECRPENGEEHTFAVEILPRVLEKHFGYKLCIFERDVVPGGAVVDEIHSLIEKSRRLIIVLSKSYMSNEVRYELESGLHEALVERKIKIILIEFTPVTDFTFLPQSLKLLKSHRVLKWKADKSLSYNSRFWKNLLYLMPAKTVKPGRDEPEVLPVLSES
T1 sequence (looked up) 2: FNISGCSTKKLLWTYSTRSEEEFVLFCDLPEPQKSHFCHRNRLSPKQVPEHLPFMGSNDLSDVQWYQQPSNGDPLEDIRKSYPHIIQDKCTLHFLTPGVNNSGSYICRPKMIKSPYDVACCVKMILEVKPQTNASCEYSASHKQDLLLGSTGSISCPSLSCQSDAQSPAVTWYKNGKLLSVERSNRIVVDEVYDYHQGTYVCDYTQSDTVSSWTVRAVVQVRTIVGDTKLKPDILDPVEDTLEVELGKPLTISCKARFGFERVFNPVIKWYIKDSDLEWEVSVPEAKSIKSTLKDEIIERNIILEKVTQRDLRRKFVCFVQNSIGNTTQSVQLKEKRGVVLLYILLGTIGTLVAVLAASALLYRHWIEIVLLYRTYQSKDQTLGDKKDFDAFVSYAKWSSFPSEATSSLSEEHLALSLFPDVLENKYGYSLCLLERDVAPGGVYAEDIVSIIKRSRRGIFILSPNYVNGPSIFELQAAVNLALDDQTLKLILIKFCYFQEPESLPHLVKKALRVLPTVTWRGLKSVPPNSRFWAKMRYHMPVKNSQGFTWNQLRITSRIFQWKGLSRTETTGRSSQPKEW
experimentalDetails: cell-based or functional assay
Recorded measurements of EC50, HEK-Blue IL18R reporter, one per entry
Please reply with the bare figure in nM and do not write the unit itself.

// known answers, use as guide
{"binder": "IL-18 variant SEQ ID NO: 57 (E6K, C38S, K53A) (ligand) YFGKLKSKLSVIRNLNDQVLFIDQGNRPLFEDMTDSDSRDNAPRTIFIISMYADSQPRGMAVTISVKCEKISTLSCENKIISFKEMNPPDNIKDTKSDIIFFQRSVPGHDNKMQFESSSYEGYFLACEKERDLFKLILKKEDELGDRSIMFTVQNED", "experimentalValue": 0.53}
{"binder": "IL-18 variant SEQ ID NO: 234 (E6K, V11I, C38A, K53A, T63A, C76A, Q103R, C127A) (ligand) YFGKLKSKLSIIRNLNDQVLFIDQGNRPLFEDMTDSDARDNAPRTIFIISMYADSQPRGMAVAISVKCEKISTLSAENKIISFKEMNPPDNIKDTKSDIIFFRRSVPGHDNKMQFESSSYEGYFLAAEKERDLFKLILKKEDELGDRSIMFTVQNED", "experimentalValue": 0.26}
{"binder": "IL-18 variant SEQ ID NO: 208 (V11I, C38A, K53A, D54A, C76A, C127A) (ligand) YFGKLESKLSIIRNLNDQVLFIDQGNRPLFEDMTDSDARDNAPRTIFIISMYAASQPRGMAVTISVKCEKISTLSAENKIISFKEMNPPDNIKDTKSDIIFFQRSVPGHDNKMQFESSSYEGYFLAAEKERDLFKLILKKEDELGDRSIMFTVQNED", "experimentalValue": 1}

Switching to the query record.
Supply reported EC50, HEK-Blue IL18R reporter belonging to this binder: IL-18 variant SEQ ID NO: 240 (E6R, V11I, C38A, K53A, T63A, C76A, C127A) (ligand) YFGKLRSKLSIIRNLNDQVLFIDQGNRPLFEDMTDSDARDNAPRTIFIISMYADSQPRGMAVAISVKCEKISTLSAENKIISFKEMNPPDNIKDTKSDIIFFQRSVPGHDNKMQFESSSYEGYFLAAEKERDLFKLILKKEDELGDRSIMFTVQNED
0.04
